# target.or.system: T1, human GIPR (Genebank Accession No. U39231) on hGIPR/CRE-LUC/CHO-K1 cells (human), P48546
# T1 chain: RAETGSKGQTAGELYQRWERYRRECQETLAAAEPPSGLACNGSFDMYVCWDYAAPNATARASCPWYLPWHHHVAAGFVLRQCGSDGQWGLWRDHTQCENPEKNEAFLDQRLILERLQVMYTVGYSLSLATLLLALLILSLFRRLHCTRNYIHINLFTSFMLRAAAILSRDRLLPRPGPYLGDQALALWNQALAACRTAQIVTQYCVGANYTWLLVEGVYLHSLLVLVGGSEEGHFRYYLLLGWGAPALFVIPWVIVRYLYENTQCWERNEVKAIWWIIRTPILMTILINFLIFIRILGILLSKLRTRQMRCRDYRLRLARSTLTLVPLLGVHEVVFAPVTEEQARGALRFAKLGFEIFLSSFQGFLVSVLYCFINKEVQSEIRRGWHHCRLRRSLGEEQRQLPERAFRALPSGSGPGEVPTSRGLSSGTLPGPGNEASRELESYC
# method: cell-based or functional assay
Square brackets hold non-standard residues; d marks the D form. Primed or numbered codes have the meaning given here. Side chains are listed from the residue outwards. Ends that are not written are not given here. * marks the point of attachment. C20 diacid = O=C(O)CCCCCCCCCCCCCCCCCCC(=O)*; C18 diacid = O=C(O)CCCCCCCCCCCCCCCCC(=O)*; C16 diacid = O=C(O)CCCCCCCCCCCCCCC(=O)*; Iva = CC[C@](C)(N)C(=O)O; PEG3′ = not defined here; AGlu = not defined here; Aib = CC(C)(N)C(=O)O
Task for the reader: assign each of the following binders its reported hGIPR (polyclonal) Reporter (EC50).
Note: state the figure and append the unit.

I'd like to know its hGIPR (polyclonal) Reporter (EC50). The binder in question is Y[Aib]EGTFISDYSIALDR[Aib]HQ[Aib]NFVNW[Iva]LAQRPSSGAPPPSK([PEG(2)-C16 diacid]) (ends and bridges not checked) [Compound No. 46]
0.01 nM

Can you check Y[Aib]EGTFISDYSIALDR[Aib]HQ[Aib]NFVNW[Iva]LAQRPSSGAPPPSK([PEG3′-PEG3′-AGlu-C16 diacid]) (ends and bridges not checked) [Compound No. 21] next?
0.01 nM

Y[Aib]EGTFISDYSIALDR[Aib]HQ[Aib]NFVNW[Iva]LAQRPSSGAPPPSK([PEG3′-PEG3′-AGlu-C18 diacid]) (ends and bridges not checked) [Compound No. 22] , same question.
0.05 nM

Follow-up entry: Y[Aib]EGTFISDYSIALDR[Aib]HQ[Aib]NFVNW[Iva]LAQRPSSGAPPPSK([PEG(2)-C20 diacid]) (ends and bridges not checked) [Compound No. 38]
0.05 nM

Now this one: Y[Aib]EGTVVSLYSI[Aib]LDKQAQ[Aib]EFVKWLLAQKK([PEG(2)-Pal]) (ends and bridges not checked) [Compound No. 20]
0.1 nM

Query Y[Aib]EGTFISDYSIALDR[Aib]HQ[Aib]NFVNW[Iva]LAQRPSSGAPPPSK([PEG(2)-C18 diacid]) (ends and bridges not checked) [Compound No. 42] next
0.03 nM

What do you get for Y[Aib]EGTFISDYSIALDR[Aib]HQ[Aib]NFVNW[Iva]LAQRPSSGAPPPSK([PEG3′-PEG3′-AGlu-C20 diacid]) (ends and bridges not checked) [Compound No. 23] ?
0.1 nM
